Target: T1, humanized dPHD-HD1 (Pygo PHD F773W in complex with Lgs HD1) (Drosophila, UniProt Q9V9W8 747-804; Q961D9 321-353, F773W)
T1 sequence 1: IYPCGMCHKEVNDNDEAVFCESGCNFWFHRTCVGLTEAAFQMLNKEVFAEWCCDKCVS
T1 sequence 2: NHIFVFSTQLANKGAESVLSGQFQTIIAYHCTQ
Assay: ITC; linked PHD-HD1 complex (uncleaved linker)

{"BINDER": "ARTKQTARKSTGGKA (dimethyl-lysine at K4 (K4me2)) [H3K4me2 15-mer (histone H3 tail peptide dimethylated at lysine 4)]", "Kd (µM)": 7.5}
